- target.or.test.system: T1, human HER-2 extracellular domain (HER-2 ECD) (human, UniProt P04626 23-646)
- T1 construct: range 23-646; also called erbB2; HER2 protein
- test: competitive Fab-phage ELISA
Please respond with true when measured IC50 is strictly beneath 2 nM, and with false in all other cases.

B25 (Fab, V domains shown) VH: EVQLVESGGGLVQPGGSLRLSCAASGFSISYSSIHWVRQAPGKGLEWVASIYPYYGYTYYADSVKGRFTISADTSKNTAYLQMNSLRAEDTAVYYCARFSFSSSSFAMDYWGQGTLVTVSS VL: DIQMTQSPSSLSASVGDRVTITCRASQDVNTAVAWYQQKPGKAPKLLIYSASSLYSGVPSRFSGSRSGTDFTLTISSLQPEDFATYYCQQYSYYPYTFGQGTKVEIK: false
Clone B11 (SXH3), purified soluble Fab (Fab, V domains shown, Tryptophan-containing clone) VH: EVQLVESGGGLVQPGGSLRLSCAASGFSIYSSYIHWVRQAPGKGLEWVASIYPYSGYTSYADSVKGRFTISADTSKNTAYLQMNSLRAEDTAVYYCARWWSSAFDYWGQGTLVTVSS VL: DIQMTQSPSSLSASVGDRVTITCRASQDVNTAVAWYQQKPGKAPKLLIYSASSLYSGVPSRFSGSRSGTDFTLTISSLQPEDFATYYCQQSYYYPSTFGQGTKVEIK: true
B20 (Fab, V domains shown) VH: EVQLVESGGGLVQPGGSLRLSCAASGFSISSSYIHWVRQAPGKGLEWVASIYPYSGYTSYADSVKGRFTISADTSKNTAYLQMNSLRAEDTAVYYCARWWSSALDYWGQGTLVTVSS VL: DIQMTQSPSSLSASVGDRVTITCRASQDVNTAVAWYQQKPGKAPKLLIYSASSLYSGVPSRFSGSRSGTDFTLTISSLQPEDFATYYCQQSYYSPSTFGQGTKVEIK: true
B16 (Fab, V domains shown) VH: EVQLVESGGGLVQPGGSLRLSCAASGFSISYSYIHWVRQAPGKGLEWVASIYPYSGYTSYADSVKGRFTISADTSKNTAYLQMNSLRAEDTAVYYCARWWSSAFDYWGQGTLVTVSS VL: DIQMTQSPSSLSASVGDRVTITCRASQDVNTAVAWYQQKPGKAPKLLIYSASSLYSGVPSRFSGSRSGTDFTLTISSLQPEDFATYYCQQYYYYPSTFGQGTKVEIK: true

Pending binder:
Does this binder meet the criterion IC50 < 2 nM? B27 (Fab, V domains shown, also called SXH3-B27 Fab-phage) VH: EVQLVESGGGLVQPGGSLRLSCAASGFSISYSSIHWVRQAPGKGLEWVASIYPYYGYTSYADSVKGRFTISADTSKNTAYLQMNSLRAEDTAVYYCARFFFFSSSFFGFDYWGQGTLVTVSS VL: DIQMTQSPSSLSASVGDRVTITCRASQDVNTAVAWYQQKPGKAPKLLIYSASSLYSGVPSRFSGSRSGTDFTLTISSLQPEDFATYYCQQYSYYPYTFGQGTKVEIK false
